Test system: MV4:11 human cancer cell lines
TEST METHOD NOTES: Anti-proliferative activity, CellTiter-Glo viability assay, 7 day protocol
Assay type: cell-based
SETUP CONDITIONS: Homo sapiens, MV4-11, 168 h, MV4:11 cells, 7 day incubation, read-out: GI50 on cellular proliferation of MV4:11 human cancer cell lines
Recorded GI50 by entry

Examples with their reported GI50 follow.
{"MOL SMILES": "CCn1cc(-c2cc(Cn3ccoc3=N)cc(C(=O)N[C@H](c3ccc(F)c(Cl)c3)C3CC3)c2)c(C(F)(F)F)n1", "EXPERIMENTAL RESULT": "< 0.1 µM"}
{"MOL SMILES": "Cn1cc(-c2cc(CN3CCCC3=N)cc(C(=O)N[C@H](c3ccc(F)c(F)c3)C3CC3)c2)c(C(F)(F)F)n1", "EXPERIMENTAL RESULT": "0.1 µM"}
{"MOL SMILES": "Cc1cc([C@@H](NC(=O)c2cc(Cn3ccn(C)c3=N)cc(-c3cn(C(C)C)nc3C(F)(F)F)c2)C2CC2)ccc1F", "EXPERIMENTAL RESULT": "< 0.1 µM"}

// moving on: another record for GI50
Quick check: GI50 of Cc1cc(F)cc(F)c1-c1cc(Cn2ccn(C)c2=N)cc(C(=O)NCc2ccc(Cl)c(Cl)c2)c1 ?
1.3 µM
